EXPERIMENTAL SYSTEM: erythrocytes infected with P. falciparum field isolate 11014
PROCEDURE DETAILS: flow cytometry, staining of IEs
ATTRIBUTE MEASURED: % parasite recognition (%)
Numbers only, in %.

MGD56 (antibody) VH: QVQLQESGPGLVKPSGTLSLTCAVSGGSITTNNWWSWVRQTPGKGLEWIGEIFRSGTTNYNPSLKSRVAISLDKSKNQFSLKLTSVTAADTAVYYCATASPFKSQRDTKDLPRPSLSAEPGTVIPLGSHVTFVCRGPVGVQTFRLQRESRSLYNDTEDVSHPSPSESEARFRIDSVSEGNAGPYRCVYYKSSKWSEESDCLELLVKTEDVTWARPQPQLDPRACPRGDLRISTDVYYMDVWGKGTTVTVSS VL: AIRMTQSPSSLSASTGDRVTITCRASQAITSYLAWYRQKPGKAPDLLIYNASTLQSGVPSRFSASGSGTDFALTITGLQSEDFVIYFCQHYYTYPPAFGQGTRLEIK | 9.5

Measured % parasite recognition of MGD39 (antibody) VH: QVRLQESGPGLVKPSGTLSLTCTVSGGSISAYRWWSWVRQAPGKGLEWIGQVYNDGNTNYNPSLKGRVAMSVDKSKNRFSLRLASVTAADTAVYYCATISPLRPQSDTDDLPRPSISAEPGTVIPLGSHVTFVCRGPIGVQTFRLERERRSLYSDTEDVSQVSPFASEARFRIDSVSEGNAGPYRCIYYKDRKWSDQSDYLELLVKGEDVTWALPQSQLAPRACPQEELNISTDIFSMNVWGKGTTVTVSS VL: AIRMTQSPASLSASIGDRVTITCRTSHDVGNYLDWYQQKPGKAPKLLIHGASTLQTGVPSRFSGSGAGTDFTLNITCLQSGDFAMYYCQQYYSSPPGFGQGTRLEIK : 11.5
